Entry source: patent US8293729B2

STUDY TARGET: human GPR119 receptor (Homo sapiens, UniProt Q8TDV5, S329A/T327A)
Construct: N-terminal leader […]; expressed in transfected cells
PROTOCOL NOTES: cAMP assay (LANCE cAMP-384) in HEK293 cells stably expressing mutant human GPR119 receptor
Assay type: cell-based
ASSAY CONDITIONS: the 31st table; read-out: EC50
EXPERIMENTAL ENDPOINT: EC50 (nM)
Report as a plain number; the unit nM is understood.

// returns EC50 for `CC(C)OC(=O)N1CCC(ON=C2CN(c3ccc(S(C)(=O)=O)cc3F)C2)CC1` with human GPR119 receptor (Homo sapiens, UniProt Q8TDV5, S329A/T327A); value = 161

----------
STUDY TARGET: human GPR119 receptor (Homo sapiens, UniProt Q8TDV5, S329A/T327A)
Construct: N-terminal leader […]; expressed in transfected cells
Sequence (Q8TDV5 with tags, fused parts or gaps T327A/S329A): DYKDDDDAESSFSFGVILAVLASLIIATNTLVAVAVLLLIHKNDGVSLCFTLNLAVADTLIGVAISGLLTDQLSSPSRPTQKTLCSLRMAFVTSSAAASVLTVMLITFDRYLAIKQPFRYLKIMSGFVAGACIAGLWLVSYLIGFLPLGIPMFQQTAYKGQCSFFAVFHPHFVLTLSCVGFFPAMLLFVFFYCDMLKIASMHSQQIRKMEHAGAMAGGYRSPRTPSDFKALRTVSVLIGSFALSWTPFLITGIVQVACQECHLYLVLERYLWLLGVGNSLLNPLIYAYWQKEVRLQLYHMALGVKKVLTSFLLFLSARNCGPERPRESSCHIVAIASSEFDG
PROTOCOL NOTES: cAMP assay (LANCE cAMP-384) in HEK293 cells stably expressing mutant human GPR119 receptor
Assay type: cell-based
ASSAY CONDITIONS: the 33rd table; read-out: EC50
EXPERIMENTAL ENDPOINT: pEC50
Kindly note that pEC50 refers to -log10 of the concentration in mol/L and answer with the value alone.

Record excerpt, results attached:
CC#CCOC(=O)N1CCC(ON=C2CCN(c3ccc(S(C)(=O)=O)cc3F)CC2)CC1: 6.82
CS(=O)(=O)c1ccc(N2CCC(=NOC3CCN(C(=O)OCC4CC4)CC3)CC2)c(F)c1: 7.00
CC1(COC(=O)N2CCC(ON=C3CCN(c4ccc(S(C)(=O)=O)cc4F)CC3)CC2)CC1: 7.17

# context switch: different compound, same pEC50
`CS(=O)(=O)c1ccc(N2CCC(=NOC3CCN(C(=O)OCCC4CC4)CC3)CC2)c(F)c1` has a reported pEC50 of 6.90

----------
This section presents compounds with their documented EC50 values.
STUDY TARGET: human GPR119 receptor (Homo sapiens, UniProt Q8TDV5, S329A/T327A)
Construct: N-terminal leader […]; expressed in transfected cells
Sequence (Q8TDV5 with tags, fused parts or gaps T327A/S329A): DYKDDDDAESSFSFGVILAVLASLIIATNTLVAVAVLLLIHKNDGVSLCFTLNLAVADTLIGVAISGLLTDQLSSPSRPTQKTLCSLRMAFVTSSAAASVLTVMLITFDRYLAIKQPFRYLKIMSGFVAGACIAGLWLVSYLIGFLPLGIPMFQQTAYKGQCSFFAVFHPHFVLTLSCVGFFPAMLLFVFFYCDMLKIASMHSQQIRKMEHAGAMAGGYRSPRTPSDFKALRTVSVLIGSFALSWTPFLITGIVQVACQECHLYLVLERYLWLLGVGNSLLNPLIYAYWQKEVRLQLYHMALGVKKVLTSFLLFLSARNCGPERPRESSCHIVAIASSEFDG
PROTOCOL NOTES: cAMP assay (LANCE cAMP-384) in HEK293 cells stably expressing mutant human GPR119 receptor
Format: cell-based
ASSAY CONDITIONS: cAMP accumulation, HEK293 cells stably expressing mutant human GPR119; read-out: EC50
Report as a plain number; the unit nM is understood.

Record excerpt, results attached:
Cc1nnn(Cc2cc(F)c(N3CCC(=NOC4CCN(C(=O)OC(C)C)CC4)CC3)cc2F)n1: 256
CC(C)OC(=O)N1CCC(ON=C2CCN(c3cc(F)c(CNS(C)(=O)=O)cc3F)CC2)CC1: 51
COCc1cc(F)c(N2CCC(=NOC3CCN(C(=O)OC(C)C)CC3)CC2)cc1F: 265

`CC(C)OC(=O)N1CCC(ON=C2CCN(c3ncnc(F)c3F)CC2)CC1` has a reported EC50 of 603

CC(C)OC(=O)N1CCC(ON=C2CCN(c3cc(F)c([S+](C)[O-])cc3F)CC2)CC1 (centres unmarked) [Example 2-41] has a reported EC50 of 58

`CC(C)OC(=O)N1CCC(ON=C2CCN(c3nc(F)ccc3F)CC2)CC1` has a reported EC50 of 3260

`CC(C)OC(=O)N1CCC(ON=C2CCN(c3cc(F)c(N4CCCC4=O)cc3F)CC2)CC1` has a reported EC50 of 157

----------
STUDY TARGET: human GPR119 receptor (Homo sapiens, UniProt Q8TDV5, S329A/T327A)
Construct: N-terminal leader […]; expressed in transfected cells
PROTOCOL NOTES: cAMP assay (LANCE cAMP-384) in HEK293 cells stably expressing mutant human GPR119 receptor
Assay type: cell-based
ASSAY CONDITIONS: the 19th table; unit inferred; read-out: EC 50
EXPERIMENTAL ENDPOINT: pEC50
Kindly note that pEC50 refers to -log10 of the concentration in mol/L and answer with the value alone.

Record excerpt, results attached:
CCc1cnc(N2CCC(ON=C3CCN(c4cc(F)c(C(=O)NCC5CCCN5)cc4F)CC3)CC2)nc1 (stereo not shown) [Example 29-121]: 6.86
CCc1cnc(N2CCC(ON=C3CCN(c4cc(F)c(C(=O)N5CCCC(CN)C5)cc4F)CC3)CC2)nc1 (stereo not shown): 7.26

CCc1cnc(N2CCC(ON=C3CCN(c4cc(F)c(C(=O)NCC5CCNC5)cc4F)CC3)CC2)nc1 (stereo not shown) [Example 29-139] has a reported pEC50 of 7.04

`CCc1cnc(N2CCC(ON=C3CCN(c4cc(F)c(C(=O)N5CCC[C@@H]5CN)cc4F)CC3)CC2)nc1` has a reported pEC50 of 6.94

----------
This section presents molecules with their documented EC50 values.
STUDY TARGET: human GPR119 receptor (Homo sapiens, UniProt Q8TDV5, S329A/T327A)
Construct: N-terminal leader […]; expressed in transfected cells
PROTOCOL NOTES: cAMP assay (LANCE cAMP-384) in HEK293 cells stably expressing mutant human GPR119 receptor
Format: cell-based
ASSAY CONDITIONS: cAMP accumulation, HEK293 cells stably expressing mutant human GPR119; read-out: EC50
Report as a plain number; the unit nM is understood.

Record excerpt, results attached:
CC(C)OC(=O)N1CCC(ON=C2CCN(c3ccc(S(C)(=O)=O)cc3F)CC2)CC1 [Example 2-1]: 47
CC(C)OC(=O)N1CCC(ON=C2CCN(c3ccc(I)cn3)CC2)CC1 [Example 2-12]: 2360
CC(C)OC(=O)N1CCC(ON=C2CCN(c3ncc4c(n3)CCN(S(C)(=O)=O)C4)CC2)CC1 [Example 59b]: 328

# context switch: different molecule, same EC50
CC(C)OC(=O)N1CCC(ON=C2CCN(c3cc(F)c(-c4cncnc4)cc3F)CC2)CC1 [Example 27-6] has a reported EC50 of 243

----------
STUDY TARGET: human GPR119 receptor (Homo sapiens, UniProt Q8TDV5, S329A/T327A)
Construct: N-terminal leader […]; expressed in transfected cells
PROTOCOL NOTES: cAMP assay (LANCE cAMP-384) in HEK293 cells stably expressing mutant human GPR119 receptor
Assay type: cell-based
ASSAY CONDITIONS: the 44th table, compounds 77-1 to 77-14; read-out: EC50
EXPERIMENTAL ENDPOINT: EC50 (nM)
Report as a plain number; the unit nM is understood.

Record excerpt, results attached:
CCc1cnc(N2CCC(ON=C3CCN(c4cc(F)c(CC(=O)N5CCC(CN(C)C)CC5)cc4F)CC3)CC2)nc1 [Example 77-14]: 6
CCc1cnc(N2CCC(ON=C3CCN(c4cc(F)c(CC(=O)N5CCC[C@@H](N)C5)cc4F)CC3)CC2)nc1 [Example 77-8]: 30

CCc1cnc(N2CCC(ON=C3CCN(c4cc(F)c(CC(=O)N5CCC[C@H](N)C5)cc4F)CC3)CC2)nc1 [Example 77-7] has a reported EC50 of 45

----------
STUDY TARGET: human GPR119 receptor (Homo sapiens, UniProt Q8TDV5, S329A/T327A)
Construct: N-terminal leader […]; expressed in transfected cells
Sequence (Q8TDV5 with tags, fused parts or gaps T327A/S329A): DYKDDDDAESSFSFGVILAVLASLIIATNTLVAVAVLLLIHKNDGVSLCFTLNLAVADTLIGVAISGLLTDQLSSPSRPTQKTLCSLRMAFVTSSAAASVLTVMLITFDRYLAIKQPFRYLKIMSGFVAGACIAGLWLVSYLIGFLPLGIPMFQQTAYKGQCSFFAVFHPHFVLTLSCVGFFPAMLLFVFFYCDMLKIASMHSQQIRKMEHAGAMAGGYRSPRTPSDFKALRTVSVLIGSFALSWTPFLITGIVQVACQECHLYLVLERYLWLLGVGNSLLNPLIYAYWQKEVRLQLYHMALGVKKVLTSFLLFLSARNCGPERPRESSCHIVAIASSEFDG
PROTOCOL NOTES: cAMP assay (LANCE cAMP-384) in HEK293 cells stably expressing mutant human GPR119 receptor
Format: cell-based
ASSAY CONDITIONS: the 35th table, compounds 65-25 to 65-36; read-out: EC50
Procedure: Quantitative detection of cAMP accumulation from cells expressing human GPR119 receptor was achieved using Perkin Elmer's LANCE cAMP-384 Kit (Cat#AD0264) according to the manufacturer's protocol. […] After 1 hour, bound europium-labeled cAMP tracer was measured using a Perkin Elmer ViewLux. The quantity of cAMP generated in each well was derived from a standard curve. […]
EXPERIMENTAL ENDPOINT: pEC50
Kindly note that pEC50 refers to -log10 of the concentration in mol/L and answer with the value alone.

CS(=O)(=O)c1cc(F)c(N2CCC(=NOC3CCN(C(=O)Cc4ccccc4)CC3)CC2)cc1F [Example 65-28] has a reported pEC50 of 6.62
